Below, each entry is listed with its recorded IC50.
- experimental_system: MIF produced by THP-1 cells (Homo sapiens, UniProt P14174)
- Construct: THP-1 cell supernatant was collected and incubated with a candidate compound; endogenous in cells
- Sequence (P14174 2-115 limits assumed): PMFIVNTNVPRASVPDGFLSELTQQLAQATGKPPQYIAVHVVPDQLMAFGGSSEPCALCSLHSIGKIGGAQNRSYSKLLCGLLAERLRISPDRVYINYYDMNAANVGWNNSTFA
- test: Antibody binding assay of MIF inhibitors (ELISA, 96-well format)
- experimental_conditions: LPS-stimulated THP-1 cell supernatant incubated with compound; MIF monoclonal antibody capture ELISA; read-out: In vitro MIF IC50
endpoint_name: IC50 (nM)

>>> test_value("CCOC(=O)c1c(N2CCN(C(=O)c3ccco3)CC2)c2sccc2n(CC(=O)c2ccccc2)c1=O [Compound 123]")
8770
>>> test_value("N#Cc1c(N2CCN(C(=O)c3cccs3)CC2)c2sccc2n(CC(=O)c2ccccc2)c1=O [Compound 110]")
1730
>>> test_value("Cc1csc2c1c(N1CCN(C(=O)c3cccs3)CC1)c(C#N)c(=O)n2Cc1ccccc1 [Compound 117]")
12300
>>> test_value("CCOC(=O)c1c(N2CCN(C(=O)c3cccs3)CC2)c2ccsc2n(Cc2ccccc2)c1=O [Compound 114]")
70
>>> test_value("CCOC(=O)c1c(N2CCN(C(=O)c3cccs3)CC2)c2cc(C)sc2n(Cc2cccc(F)c2)c1=O [Compound 127]")
32
>>> test_value("CCOC(=O)c1c(N2CCN(C(=O)c3cccs3)CC2)c2c(C)csc2n(Cc2ccccc2)c1=O [Compound 115]")
11800
>>> test_value("N#Cc1c(N2CCN(C(=O)c3cccs3)CC2)c2sccc2n(Cc2cccnc2)c1=O [Compound 111]")
254
>>> test_value("CCOC(=O)c1c(N2CCN(C(=O)c3cccs3)CC2)c2cscc2n(CC(=O)c2ccccc2)c1=O [Compound 105]")
53
>>> test_value("CCOC(=O)c1c(N2CCN(C(=O)c3ccc(F)s3)CC2)c2sccc2n(Cc2cccc(F)c2)c1=O [Compound 126]")
648
>>> test_value("N#Cc1c(N2CCN(C(=O)c3cccs3)CC2)c2cscc2n(CC(=O)c2ccccc2)c1=O [Compound 101]")
70
>>> test_value("COC(=O)c1ccc(Cn2c(=O)c(C#N)c(N3CCN(C(=O)c4cccs4)CC3)c3cscc32)cc1 [Compound 103]")
437
>>> test_value("N#Cc1c(N2CCN(C(=O)c3cccs3)CC2)c2sccc2n(Cc2ccc(F)cc2)c1=O [Compound 113]")
419
>>> test_value("N#Cc1c(N2CCN(C(=O)c3cccs3)CC2)c2sccc2n(Cc2cccc(F)c2)c1=O [Compound 112]")
595
>>> test_value("N#Cc1c(N2CCN(C(=O)c3cccs3)CC2)c2cscc2n(Cc2ccc(F)cc2)c1=O [Compound 102]")
82
>>> test_value("N#Cc1c(N2CCN(C(=O)c3cccs3)CC2)c2cscc2n(Cc2cccnc2)c1=O [Compound 104]")
59
>>> test_value("CCOC(=O)c1c(N2CCN(C(=O)c3cccs3)CC2)c2cscc2n(Cc2ccc(C(=O)OC)cc2)c1=O [Compound 107]")
35
>>> test_value("N#Cc1c(N2CCN(C(=O)c3cccs3)CC2)c2cscc2n(-c2cccnc2)c1=O [Compound 108]")
171
>>> test_value("CCOC(=O)c1c(N2CCN(C(=O)c3ccco3)CC2)c2sccc2n(Cc2ccc(F)cc2)c1=O [Compound 119]")
4150
>>> test_value("CCOC(=O)c1c(N2CCN(C(=O)c3cccs3)CC2)c2sccc2n(CC(=O)c2ccccc2)c1=O [Compound 120]")
799
>>> test_value("CC(C)OC(=O)c1c(N2CCN(C(=O)c3cccs3)CC2)c2sccc2n(Cc2cccc(F)c2)c1=O [Compound 125]")
387
>>> test_value("CCOC(=O)c1c(N2CCN(C(=O)c3cccs3)CC2)c2sccc2n(Cc2ccc(F)cc2)c1=O [Compound 109]")
233
>>> test_value("CCOC(=O)c1c(N2CCN(C(=O)c3cccs3)CC2)c2sccc2n(Cc2cccc(F)c2)c1=O [Compound 121]")
146
>>> test_value("N#Cc1c(N2CCN(C(=O)c3cccs3)CC2)c2ccsc2n(Cc2ccccc2)c1=O [Compound 116]")
139
>>> test_value("CCOC(=O)c1c(N2CCN(C(=O)c3cccs3)CC2)c2cscc2n(Cc2ccc(F)cc2)c1=O [Compound 106]")
40
>>> test_value("CCOC(=O)c1c(N2CCN(C(=O)c3cccs3)CC2)c2sccc2n(Cc2cccnc2)c1=O [Compound 124]")
269
>>> test_value("CCOC(=O)c1c(N2CCN(C(=O)c3ccco3)CC2)c2sccc2n(Cc2cccc(F)c2)c1=O [Compound 122]")
5840
